- Target Entity: Human pyruvate kinase R (PKR) (Homo sapiens, UniProt P30613)
- Construct: Human pyruvate kinase R (PKR), residues 14-574; 6x-His (N, cleaved yes); 8x-Arg (N, cleaved yes); SUMO (N, cleaved yes); host or cells: E. coli
- Sequence (P30613 14-574): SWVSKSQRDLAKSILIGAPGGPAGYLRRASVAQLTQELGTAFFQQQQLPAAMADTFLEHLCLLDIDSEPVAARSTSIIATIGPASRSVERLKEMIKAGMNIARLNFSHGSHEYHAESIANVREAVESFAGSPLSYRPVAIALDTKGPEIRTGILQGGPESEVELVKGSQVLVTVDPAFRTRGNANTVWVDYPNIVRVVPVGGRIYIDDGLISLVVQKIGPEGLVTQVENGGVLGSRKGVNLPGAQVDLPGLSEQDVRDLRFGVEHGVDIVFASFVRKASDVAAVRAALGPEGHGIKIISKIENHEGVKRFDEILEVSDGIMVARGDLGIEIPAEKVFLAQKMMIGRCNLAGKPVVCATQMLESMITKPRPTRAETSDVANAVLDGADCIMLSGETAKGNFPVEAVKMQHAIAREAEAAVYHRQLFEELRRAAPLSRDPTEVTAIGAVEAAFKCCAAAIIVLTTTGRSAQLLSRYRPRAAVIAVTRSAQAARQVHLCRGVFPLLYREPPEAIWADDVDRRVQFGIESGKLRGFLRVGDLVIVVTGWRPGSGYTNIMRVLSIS
- Assay Info: Biochemical assay for activation of pyruvate kinase R (Kinase-Glo luminescence, ATP generation)
- Experimental Parameters: maximal activation level relative to the activation level achieved by AG-348 @ 10 μM
Readout: PKR % activation (%)
Express the result in % but write the number alone.

Some solved entries appear below for comparison.
compound="Cc1cccc([C@@]2(C(=O)N3Cc4cn(S(=O)(=O)c5ccc6ncsc6c5)nc4C3)CCOC2)n1 (single isomer, unassigned) [Compound 35]" readout="PKR % activation" meas_value=115
compound="O=C([C@H](CO)c1ncccc1F)N1Cc2cn(S(=O)(=O)c3ccc4ncccc4c3)nc2C1 (single isomer, unassigned) [Compound 102]" readout="PKR % activation" meas_value=81
compound="O=C(N1Cc2cn(S(=O)(=O)c3ccc4c(c3)NCCO4)nc2C1)[C@]1(c2ccccn2)CCOC1 (single isomer, unassigned) [Compound 45]" readout="PKR % activation" meas_value=94
compound="O=C([C@@H](c1ccccc1)N1CCC1=O)N1Cc2cn(S(=O)(=O)c3ccc(OC(F)F)cc3)nc2C1 (single isomer, unassigned) [Compound 99]" readout="PKR % activation" meas_value=92
compound="O=C([C@@H](CO)c1ccccc1)N1Cc2cn(S(=O)(=O)c3ccc(OC(F)F)cc3)nc2C1 (single isomer, unassigned) [Compound 7]" readout="PKR % activation" meas_value=137

Moving on to another compound below.
Input line: Given the compound O=C([C@H](CO)c1ccccc1)N1Cc2cn(S(=O)(=O)c3ccc4ncsc4c3)nc2C1 (single isomer, unassigned) , what is its reported PKR % activation?
Output line: 127

---

The entries below come with measured log10 of AC50 values attached.
- Target Entity: Pyruvate kinase M2 (PKM2) in H1299 cells (Homo sapiens)
- Construct: endogenous in cells; host or cells: H1299
- Sequence (P14618 2-531 limits assumed): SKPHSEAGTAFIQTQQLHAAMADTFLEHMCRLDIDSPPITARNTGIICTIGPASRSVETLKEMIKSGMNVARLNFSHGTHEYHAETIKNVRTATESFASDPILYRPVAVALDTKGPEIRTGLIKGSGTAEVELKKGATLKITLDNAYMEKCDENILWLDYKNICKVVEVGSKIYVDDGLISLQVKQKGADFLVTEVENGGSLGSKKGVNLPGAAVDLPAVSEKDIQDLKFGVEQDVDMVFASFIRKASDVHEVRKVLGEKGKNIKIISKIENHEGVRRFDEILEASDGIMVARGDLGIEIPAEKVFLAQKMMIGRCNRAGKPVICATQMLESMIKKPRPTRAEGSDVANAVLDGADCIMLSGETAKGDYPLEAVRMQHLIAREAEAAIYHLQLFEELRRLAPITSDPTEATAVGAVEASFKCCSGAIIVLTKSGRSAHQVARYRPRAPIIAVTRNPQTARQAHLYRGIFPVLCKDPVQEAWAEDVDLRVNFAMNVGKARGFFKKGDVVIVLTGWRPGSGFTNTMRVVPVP
- Assay Info: Cell based assay for activation of pyruvate kinase M2 in lung carcinoma cell line (NADH/LDH coupled assay on cell lysate)
- Experimental Parameters: PKM2 cellular assay; H1299 cells, 90 minutes with compound
Hey, these are logged values: log10 of AC50, nM being the unit before logging.

Some solved entries appear below for comparison.
compound="O=C([C@@H](CO)c1ccccc1)N1Cc2cn(S(=O)(=O)c3ccc4c(c3)OCCO4)nc2C1 (single isomer, unassigned) [Compound 25]" readout="log10 of AC50" meas_value=1.49
compound="O=C(N1Cc2cn(S(=O)(=O)c3ccc4ncsc4c3)nc2C1)[C@]1(c2ccccn2)CCOC1 (single isomer, unassigned) [Compound 20]" readout="log10 of AC50" meas_value=1.15

Input line: Recorded log10 of AC50 for O=C([C@@H](CO)c1ccccc1)N1Cc2cn(S(=O)(=O)c3ccc4ncsc4c3)nc2C1 (single isomer, unassigned) [Compound 1] with Pyruvate kinase M2 (PKM2) in H1299 cells (Homo sapiens), please?
Output line: 1.52

Input line: Recorded log10 of AC50 for N[C@@H](C(=O)N1Cc2cn(S(=O)(=O)c3ccc4ncsc4c3)nc2C1)c1ccccc1F [Compound 17] with Pyruvate kinase M2 (PKM2) in H1299 cells (Homo sapiens), please?
Output line: 1.36

Input line: Recorded log10 of AC50 for N[C@@H](C(=O)N1Cc2cn(S(=O)(=O)c3ccc4ncsc4c3)nc2C1)c1cccc(F)c1 [Compound 32] with Pyruvate kinase M2 (PKM2) in H1299 cells (Homo sapiens), please?
Output line: 1.96

Input line: Recorded log10 of AC50 for O=C(N1Cc2cn(S(=O)(=O)c3ccc4ncsc4c3)nc2C1)C1(c2ccccc2)COC1 [Compound 40] with Pyruvate kinase M2 (PKM2) in H1299 cells (Homo sapiens), please?
Output line: 1.49

Input line: Recorded log10 of AC50 for C[C@@H](O)[C@H](C(=O)N1Cc2cn(S(=O)(=O)c3ccc4ncsc4c3)nc2C1)c1ccccc1 (single isomer, unassigned) [Compound 3] with Pyruvate kinase M2 (PKM2) in H1299 cells (Homo sapiens), please?
Output line: 1.65

Input line: Recorded log10 of AC50 for NC(C(=O)N1Cc2cn(S(=O)(=O)c3ccc4ncsc4c3)nc2C1)c1cccc(C(F)(F)F)c1 (racemic) [Compound 26] with Pyruvate kinase M2 (PKM2) in H1299 cells (Homo sapiens), please?
Output line: 2.17

Input line: Recorded log10 of AC50 for Cc1cc(C(N)C(=O)N2Cc3cn(S(=O)(=O)c4ccc5ncsc5c4)nc3C2)ccc1F (racemic) [Compound 39] with Pyruvate kinase M2 (PKM2) in H1299 cells (Homo sapiens), please?
Output line: 1.72

Input line: Recorded log10 of AC50 for O=C([C@@H](CO)c1ccccc1)N1Cc2cn(S(=O)(=O)c3ccc(OC(F)F)cc3)nc2C1 (single isomer, unassigned) [Compound 7] with Pyruvate kinase M2 (PKM2) in H1299 cells (Homo sapiens), please?
Output line: 1.34

Input line: Recorded log10 of AC50 for Cc1cccc([C@@]2(C(=O)N3Cc4cn(S(=O)(=O)c5ccc6ncsc6c5)nc4C3)CCOC2)n1 (single isomer, unassigned) [Compound 35] with Pyruvate kinase M2 (PKM2) in H1299 cells (Homo sapiens), please?
Output line: 1.97

Input line: Recorded log10 of AC50 for N[C@@H](C(=O)N1Cc2cn(S(=O)(=O)c3ccc4ncsc4c3)nc2C1)c1ccccc1 [Compound 15] with Pyruvate kinase M2 (PKM2) in H1299 cells (Homo sapiens), please?
Output line: 1.41

Input line: Recorded log10 of AC50 for C[C@@H](O)[C@H](C(=O)N1Cc2cn(S(=O)(=O)c3ccc4c(c3)NCCO4)nc2C1)c1ccccc1 [Compound 24] with Pyruvate kinase M2 (PKM2) in H1299 cells (Homo sapiens), please?
Output line: 1.77

Input line: Recorded log10 of AC50 for N[C@H](C(=O)N1Cc2cn(S(=O)(=O)c3ccc4ncsc4c3)nc2C1)c1ccccc1 [Compound 14] with Pyruvate kinase M2 (PKM2) in H1299 cells (Homo sapiens), please?
Output line: 1.72

Input line: Recorded log10 of AC50 for N[C@@H](C(=O)N1Cc2cn(S(=O)(=O)c3ccc(OC(F)F)cc3)nc2C1)c1cccc(F)c1 [Compound 29] with Pyruvate kinase M2 (PKM2) in H1299 cells (Homo sapiens), please?
Output line: 1.40

Input line: Recorded log10 of AC50 for CC(O)C(C(=O)N1Cc2cn(S(=O)(=O)c3ccc4ncsc4c3)nc2C1)c1ccccc1 (single isomer, unassigned) [Compound 5] with Pyruvate kinase M2 (PKM2) in H1299 cells (Homo sapiens), please?
Output line: 1.58

Input line: Recorded log10 of AC50 for O=C([C@H](O)c1ccccc1)N1Cc2cn(S(=O)(=O)c3ccc4ncsc4c3)nc2C1 [Compound 42] with Pyruvate kinase M2 (PKM2) in H1299 cells (Homo sapiens), please?
Output line: 1.20

Input line: Recorded log10 of AC50 for O=C([C@@H](CO)c1ccccc1)N1Cc2cn(S(=O)(=O)c3ccc4c(c3)NCCO4)nc2C1 (single isomer, unassigned) [Compound 22] with Pyruvate kinase M2 (PKM2) in H1299 cells (Homo sapiens), please?
Output line: 1.52

Input line: Recorded log10 of AC50 for C[C@@H](O)[C@H](C(=O)N1Cc2cn(S(=O)(=O)c3ccc4c(c3)NCCO4)nc2C1)c1ccccc1 [Compound 23] with Pyruvate kinase M2 (PKM2) in H1299 cells (Homo sapiens), please?
Output line: 1.79

Input line: Recorded log10 of AC50 for Cc1cccc([C@@H](N)C(=O)N2Cc3cn(S(=O)(=O)c4ccc5ncsc5c4)nc3C2)c1 [Compound 37] with Pyruvate kinase M2 (PKM2) in H1299 cells (Homo sapiens), please?
Output line: 1.23

Input line: Recorded log10 of AC50 for O=S(=O)(c1ccc2c(c1)NCCO2)N1Cc2cn(S(=O)(=O)c3ccc4ncsc4c3)nc2C1 [Compound 12] with Pyruvate kinase M2 (PKM2) in H1299 cells (Homo sapiens), please?
Output line: 1.36

---

- Target Entity: Human pyruvate kinase R (PKR) (Homo sapiens, UniProt P30613)
- Construct: Human pyruvate kinase R (PKR), residues 14-574; 6x-His (N, cleaved yes); 8x-Arg (N, cleaved yes); SUMO (N, cleaved yes); host or cells: E. coli
- Assay Info: Biochemical assay for activation of pyruvate kinase R (Kinase-Glo luminescence, ATP generation)
- Experimental Parameters: 0.1 nM PKR, 2 mM FBP, 0.3 mM ADP, 0.1 mM PEP
Readout: AC50 (nM)
Express the result in nM but write the number alone.

molecule=N[C@@H](C(=O)N1Cc2cn(S(=O)(=O)c3ccc(OC(F)F)cc3)nc2C1)c1cccc(OC(F)(F)F)c1 meas_value=371
molecule="O=C([C@H](CO)c1ccccc1)N1Cc2cn(S(=O)(=O)c3ccc4ncsc4c3)nc2C1 (single isomer, unassigned)" meas_value=556
molecule="C[C@@H](O)[C@@H](C(=O)N1Cc2cn(S(=O)(=O)c3ccc(OC(F)F)cc3)nc2C1)c1ccccc1Cl (single isomer, unassigned) [Compound 68]" meas_value=10

Input line: Given the molecule O=C(N1Cc2cn(S(=O)(=O)c3ccc4ncsc4c3)nc2C1)C1(c2ccccc2)COCCN1 (stereo not shown) , what is its reported AC50?
Output line: 209
